Assayed System: HLA-A*02 (Homo sapiens, UniProt P04439, D140Y/D185E/D98H/E176V/E277Q/G131W/G231S/I119V/I121R/I166T/I218V/N151K/N90K/P208A/P217A/Q86G/Q94H/R138H/R169H)
Protocol Description: UV-ligand exchange / peptide binding to MHC class I (beta2m ELISA)
Test Context: Table 10B; peptide exchange yield; HLA-A*02 peptides
Measured Property: Peptide exchange (MHC class I binding score)

Sample records with Peptide exchange (MHC class I binding score):
>  <Substance>
53 (GLIHLEGDTV; listed as Homo sapiens) [compound 53]

>  <Endpoint Result>
“+++” (≥50 = +++)

$$$$
>  <Substance>
142 (AVIGGLIYV; listed as Homo sapiens) [compound 142]

>  <Endpoint Result>
“++++” (≥75% = ++++)

$$$$
>  <Substance>
39 (ALDPKANFST; listed as Homo sapiens) [compound 39]

>  <Endpoint Result>
“+++” (≥50 = +++)

$$$$
>  <Substance>
15 (LLYGHTVTV; listed as Homo sapiens) [compound 15]

>  <Endpoint Result>
“++++” (≥75% = ++++)

$$$$
>  <Substance>
138 (ALSQVTLLL; listed as Homo sapiens) [compound 138]

>  <Endpoint Result>
“++++” (≥75% = ++++)

$$$$
>  <Substance>
300 (TLAQQPTAV; listed as Homo sapiens) [compound 300]

>  <Endpoint Result>
“++” (≥20% = ++)

$$$$

Problem: # lookup: Peptide exchange (MHC class I binding score) of 171 (SLIPAVLTV; listed as Homo sapiens) [compound 171]
Solution: “+++” (≥50 = +++)

Problem: Now the substance 270 (SVLDQKILL; listed as Homo sapiens) [compound 270]
Solution: “+++” (≥50 = +++)

Problem: Next record, please: 26 (SLLHTIYEV; listed as Homo sapiens) [compound 26]
Solution: “+++” (≥50 = +++)

Problem: Also check 63 (KIDEKNFVV; listed as Homo sapiens) [compound 63]
Solution: “+++” (≥50 = +++)

Problem: Can you handle 164 (RMLIKLLEV; listed as Homo sapiens) [compound 164] next?
Solution: “+++” (≥50 = +++)

Problem: And the next one, 110 (TVGGSEILFEV; listed as Homo sapiens) [compound 110] ?
Solution: “++++” (≥75% = ++++)

Problem: And then 57 (HLTEAIQYV; listed as Homo sapiens) [compound 57] , what is it?
Solution: “+++” (≥50 = +++)

Problem: Then 120 (YLGEEYVKA; listed as Homo sapiens) [compound 120] ?
Solution: “++” (≥20% = ++)

Problem: Thanks! And 223 (FLFNTENKLLL; listed as Homo sapiens) [compound 223] ?
Solution: “++++” (≥75% = ++++)

Problem: Then what about the substance 261 (VLFQEALWHV; listed as Homo sapiens) [compound 261] ?
Solution: “+++” (≥50 = +++)

Problem: Follow-up entry: 106 (TLAAIIHGA; listed as Homo sapiens) [compound 106]
Solution: “+++” (≥50 = +++)

Problem: Same question for 18 (ALYGKTEVV; listed as Homo sapiens) [compound 18] please.
Solution: “+++” (≥50 = +++)

Problem: And for 7 (ALVDTLKFV; listed as Homo sapiens) [compound 7] ?
Solution: “++++” (≥75% = ++++)

Problem: Field entry: 33 (LLHGHIVEL; listed as Homo sapiens) [compound 33]
Solution: “+++” (≥50 = +++)

====

Assayed System: HLA-A*02 (Homo sapiens, UniProt P04439, D140Y/D185E/D98H/E176V/E277Q/G131W/G231S/I119V/I121R/I166T/I218V/N151K/N90K/P208A/P217A/Q86G/Q94H/R138H/R169H)
Protocol Description: UV-ligand exchange / peptide binding to MHC class I (beta2m ELISA)
Test Context: Table 10B; peptide exchange yield; HLA-A*02 peptides
Measured Property: Peptide exchange (MHC class I binding score)

>  <Substance>
262 (VLPNFLPYNV; listed as Homo sapiens) [compound 262]

>  <Endpoint Result>
“+++” (≥50 = +++)

$$$$
>  <Substance>
288 (LLDDSLVSI; listed as Homo sapiens) [compound 288]

>  <Endpoint Result>
“+++” (≥50 = +++)

$$$$
>  <Substance>
114 (VLSQVYSKV; listed as Homo sapiens) [compound 114]

>  <Endpoint Result>
“+++” (≥50 = +++)

$$$$
>  <Substance>
156 (LLFPHPVNQV; listed as Homo sapiens) [compound 156]

>  <Endpoint Result>
“++++” (≥75% = ++++)

$$$$

Problem: Name the recorded Peptide exchange (MHC class I binding score) for 237 (ALRGEIETV; listed as Homo sapiens) [compound 237] .
Solution: “+++” (≥50 = +++)

====

Assayed System: HLA-A*02 (Homo sapiens, UniProt P04439, D140Y/D185E/D98H/E176V/E277Q/G131W/G231S/I119V/I121R/I166T/I218V/N151K/N90K/P208A/P217A/Q86G/Q94H/R138H/R169H)
Protocol Description: UV-ligand exchange / peptide binding to MHC class I (beta2m ELISA)
Test Context: Table 10A; peptide exchange yield, UV-ligand exchange, β2m ELISA
Measured Property: Peptide exchange (MHC class I binding score)

Solved cases (6 shown):
>  <Substance>
13 (GLIDTETAMKAV; listed as Homo sapiens) [compound 13]

>  <Endpoint Result>
++++ (>=75% = ++++)

$$$$
>  <Substance>
8 (KLLEEATISV; listed as Homo sapiens) [compound 8]

>  <Endpoint Result>
+++ (50%-75% = +++)

$$$$
>  <Substance>
1 (VMAPFTMTI; listed as Homo sapiens) [compound 1]

>  <Endpoint Result>
++++ (>=75% = ++++)

$$$$
>  <Substance>
219 (GVMAGDIYSV; listed as Homo sapiens) [compound 219]

>  <Endpoint Result>
++++ (>=75% = ++++)

$$$$
>  <Substance>
14 (ALADLTGTVV; listed as Homo sapiens) [compound 14]

>  <Endpoint Result>
++++ (>=75% = ++++)

$$$$
>  <Substance>
232 (KLAEIVKQV; listed as Homo sapiens) [compound 232]

>  <Endpoint Result>
++++ (>=75% = ++++)

$$$$

Problem: Entry 228 (YLITSVELL; listed as Homo sapiens) [compound 228] : reported Peptide exchange (MHC class I binding score) = ?
Solution: ++++ (>=75% = ++++)

Problem: Also, 301 (VLADFGARV; listed as Homo sapiens) [compound 301] please.
Solution: +++ (50%-75% = +++)

Problem: Repeat for the following substance: 225 (KMDPVAYRV; listed as Homo sapiens) [compound 225]
Solution: +++ (50%-75% = +++)

====

Assayed System: HLA-A*02 (Homo sapiens, UniProt P04439, D140Y/D185E/D98H/E176V/E277Q/G131W/G231S/I119V/I121R/I166T/I218V/N151K/N90K/P208A/P217A/Q86G/Q94H/R138H/R169H)
Protocol Description: UV-ligand exchange / peptide binding to MHC class I (beta2m ELISA)
Test Context: Table 10A; peptide exchange yield, UV-ligand exchange, β2m ELISA
Measured Property: Peptide exchange (MHC class I binding score)

>  <Substance>
223 (FLFNTENKLLL; listed as Homo sapiens) [compound 223]

>  <Endpoint Result>
++++ (>=75% = ++++)

$$$$
>  <Substance>
16 (SLLGGNIRL; listed as Homo sapiens) [compound 16]

>  <Endpoint Result>
++++ (>=75% = ++++)

$$$$
>  <Substance>
226 (AVLGPLGLQEV; listed as Homo sapiens) [compound 226]

>  <Endpoint Result>
+++ (50%-75% = +++)

$$$$
>  <Substance>
2 (KLQAGTVFV; listed as Homo sapiens) [compound 2]

>  <Endpoint Result>
+++ (50%-75% = +++)

$$$$
>  <Substance>
220 (SLLEKELESV; listed as Homo sapiens) [compound 220]

>  <Endpoint Result>
+++ (50%-75% = +++)

$$$$
>  <Substance>
221 (ALCEENMRGV; listed as Homo sapiens) [compound 221]

>  <Endpoint Result>
+++ (50%-75% = +++)

$$$$
>  <Substance>
4 (KLQDFSDQL; listed as Homo sapiens) [compound 4]

>  <Endpoint Result>
++++ (>=75% = ++++)

$$$$
>  <Substance>
227 (ALLKVNQEL; listed as Homo sapiens) [compound 227]

>  <Endpoint Result>
++++ (>=75% = ++++)

$$$$

Continue with the next substance.
Problem: Return reported Peptide exchange (MHC class I binding score); argument: 7 (ALVDTLKFV; listed as Homo sapiens) [compound 7]
Solution: ++++ (>=75% = ++++)
